B1: ZBED1 (parent)
chain: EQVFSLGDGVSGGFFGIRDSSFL

- Variants of: B1
- assay-summary: protein stability index of a GFP-peptide fusion (GPS, HEK-293T) (PSI 1-6); higher = more stable;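 note: lentivirally expressed fusions sorted by FACS into six bins by GFP to DsRed ratio, PSI derived from sequencing read proportions per bin multiplied by bin number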
- condition-details: c terminus: native
measurement-label: protein stability index
API note: the answer field is a bare number with no unit suffix.

Recorded results for 2 variants are shown here.
V10K; 3.6
F15Q; 4.63

Requested field: protein stability index. Item: `I17Y`
3.28

Requested field: protein stability index. Item: `V3A`
4.03

Requested field: protein stability index. Item: `I17H`
4.03

Requested field: protein stability index. Item: `F4Q`
4.12

Requested field: protein stability index. Item: `R18Q`
3.38
